Property: log10 biodegradation half-life (days)

`C1CCCCC1` yielded log10 biodegradation half-life (days) of 1.7

`c1cc2ccc3cccc4ccc(c1)c2c34` yielded log10 biodegradation half-life (days) of 2.37

`CCCCCCCCCCCCCCCC` yielded log10 biodegradation half-life (days) of 1.23

###

Property: boiling point (°C)
// units = °C; emit number, no label

`CCOC(CN(CC)CC)OCC` yielded boiling point of 194

CCC(C)CC(C)C(C)C (configuration not stated) yielded boiling point of 161

`Cc1ccc2ccccc2n1` yielded boiling point of 246

`CCOC(=O)CCCC(=O)OCC` yielded boiling point of 236

`C=C(Cl)Cl` yielded boiling point of 31.6

`CC(I)I` yielded boiling point of 180

`FC(F)(F)c1cccc(Cl)c1` yielded boiling point of 138

`COc1ccc(C)c(N)c1` yielded boiling point of 253

CCCCC(C)CC (configuration not stated) yielded boiling point of 118

`c1ccc(-c2ccc3ccccc3c2)cc1` yielded boiling point of 346

`Nc1c(F)c(F)c(C(F)(F)F)c(F)c1F` yielded boiling point of 186

`NCCCCCCCCN` yielded boiling point of 225

`c1ccc(Nc2ccccn2)nc1` yielded boiling point of 308

`CC#CCCCCCCCC` yielded boiling point of 204

`C#CCl` yielded boiling point of -30

`CC[C@@H]1CCC[C@H]1C` yielded boiling point of 125

`C=CCNCC=C` yielded boiling point of 111

`Cc1cnc2ccccc2c1` yielded boiling point of 260

`CC(=O)OCCCOC(C)=O` yielded boiling point of 210

`CC(C)(C)C(=O)Cl` yielded boiling point of 107

CCC(C)CCBr (configuration not stated) yielded boiling point of 148

`Cc1ccc(C(=O)c2ccccc2)cc1C` yielded boiling point of 341

`C=COCCCCCC` yielded boiling point of 143

`FC1(F)C(F)(F)C(F)(F)C(F)(F)C(F)(F)C1(F)F` yielded boiling point of 50.6

`C[C@@H]1CCC[C@H]1O` yielded boiling point of 150

`CC(Cl)=CCCl` yielded boiling point of 131

`CC(=O)c1cccc([N+](=O)[O-])c1` yielded boiling point of 202

`CCC1=CCCCC1` yielded boiling point of 137

`COC(=O)CCO` yielded boiling point of 179

`C=CCCCO` yielded boiling point of 141

`c1ccc(-c2ccc(-c3ccccc3)cc2)cc1` yielded boiling point of 376

`Nc1cccc2ncccc12` yielded boiling point of 310

###

Property: melting point (°C)
// units = °C; emit number, no label

`CCCCCCCC(=O)OCC(COC(=O)CCCCCCC)OC(=O)CCCCCCC` yielded melting point of 10

`CN(C)C(=O)Nc1cc(C(C)(C)C)on1` yielded melting point of 120

`Brc1cc2ccccc2c2ccccc12` yielded melting point of 64.5

`NC(=O)c1ncccc1O` yielded melting point of 195

`O=S(=O)(O)c1ccc2ccc(S(=O)(=O)O)cc2c1` yielded melting point of 199

`CNCCc1c[nH]c2ccccc12` yielded melting point of 88

`CC(C)CCC[C@@H](C)[C@H]1CC[C@@H]2[C@@H]3CC[C@H]4CCCC[C@]4(C)[C@H]3CC[C@@]21C` yielded melting point of 76

`C=CCc1ccccc1O` yielded melting point of -6

`Cn1nnc2ccccc21` yielded melting point of 64.5

CCCCC(C)CCC (stereo not drawn) yielded melting point of -113

`O=Cc1ccnc2ccccc12` yielded melting point of 51

`CC(=O)O[C@]1(C(C)=O)CC[C@H]2[C@@H]3C[C@H](C)C4=CC(=O)CC[C@]4(C)[C@H]3CC[C@@]21C` yielded melting point of 206

`OCc1cc(O)ccc1O` yielded melting point of 100

`C#CCCCCCCCCCCCCCCCCCC` yielded melting point of 36

`O=C(Cl)c1ccco1` yielded melting point of -2

`C1CSCS1` yielded melting point of -50

`CCN(CC)c1ccc(C=O)cc1` yielded melting point of 41

`O=C(O)c1c(F)c(F)cc(F)c1F` yielded melting point of 151

`Oc1ccc(Cl)cc1Cl` yielded melting point of 45

`COP(=S)(OC)Oc1ccc([N+](=O)[O-])c(C)c1` yielded melting point of 3.4

`Cc1cccc2cccc(C)c12` yielded melting point of 65

`COc1ccccc1Cl` yielded melting point of -26.8

`O=Cc1cccc(Cl)c1` yielded melting point of 17.5

`COC(=O)CCCCCCCCC(=O)OC` yielded melting point of 38

`Cc1ccc(S(=O)c2ccc(C)cc2)cc1` yielded melting point of 95

`CC(=O)F` yielded melting point of -84

`O=C(Cl)c1ccccc1Br` yielded melting point of 11

CCCCCCCCCCC(C)O (stereo not drawn) yielded melting point of 19

C#CC(C)(CC)OC(N)=O (stereo not drawn) yielded melting point of 55.8

`CC[C@@H]1CCC[C@H]1C` yielded melting point of -106

`COc1ccccc1C#N` yielded melting point of 24.5

CCC1(CC2(c3cccc(Cl)c3)CO2)C(=O)c2ccccc2C1=O (stereo not drawn) yielded melting point of 61

`COc1ccc(O)cc1` yielded melting point of 57

`COc1cc2c(cc1OC)[C@@]13CCN4CC5=CCO[C@H]6CC(=O)N2[C@H]1[C@H]6[C@H]5C[C@H]43` yielded melting point of 178

`CN=C=O` yielded melting point of -45

`CCCCCCCCCCCC1CCCC1` yielded melting point of -10

`CCOC(=O)C1(c2ccccc2)CCN(C)CC1` yielded melting point of 270

`COc1ccc(C(=O)c2ccc(OC)cc2O)c(O)c1` yielded melting point of 140

`COc1c(Cl)cc(Cl)cc1Cl` yielded melting point of 61.5

`CCCC=NO` yielded melting point of -29.5

`CO/N=C(/C(=O)OC)c1ccccc1COc1ccccc1C` yielded melting point of 99

`CCCCCCCCCCCCCCCCCCCCCCCCCCCCC` yielded melting point of 63.7

`Oc1cc(Cl)c(Cl)c(Cl)c1` yielded melting point of 101

`CCCCCCCCCCCCCCCCCC(=O)OCCCC` yielded melting point of 27

`O=c1[nH]c2ccccc2n1CCCN1CCC(n2c(=O)[nH]c3cc(Cl)ccc32)CC1` yielded melting point of 242

`CC(=O)/C(C)=N/O` yielded melting point of 76.8

`CCC1(C2=C[C@H]3CC[C@@H](C2)C3)C(=O)NC(=O)NC1=O` yielded melting point of 213

CC(Oc1cc(Cl)c(Cl)cc1Cl)C(=O)O (stereo not drawn) yielded melting point of 182

CCCCC(CC)COC(=O)c1ccc(C(=O)OCC(CC)CCCC)cc1 (stereo not drawn) yielded melting point of -48

`COC(=O)CCCCCCCCCCC(=O)OC` yielded melting point of 31.9

`CCCCCCCCCCCCC=O` yielded melting point of 14

`Clc1cc2oc3c(Cl)c(Cl)ccc3c2c(Cl)c1Cl` yielded melting point of 206

`CCN(CC)c1c([N+](=O)[O-])cc(C(F)(F)F)c(N)c1[N+](=O)[O-]` yielded melting point of 98
